Origin of the recorded values: PubChem BioAssay

assay: growth suppression of PTEN-deleted HCT116, pilot screen, cell-based, HCT116 clonal line, CellTiter-Glo (AID 824); conditions: 60 h, at 10 µM, stronger effect = lower value;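 note: 0% = 20 µM Hyamine control and 100% = vehicle cell control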
Records with an inconclusive call do not appear.
observed_property: viability (%)

{"compound": "CCC(CC)C(=O)N1c2ccc(F)cc2CCC1C (configuration not stated)", "observed": 93.9}
{"compound": "CCOc1ccc(C2c3c(oc4cc(C)c(C)cc4c3=O)C(=O)N2CCCN(C)C)cc1OC (configuration not stated)", "observed": 98}
{"compound": "O=S(=O)(c1cc(Cl)ccc1Cl)N1CCN(Cc2ccc3c(c2)OCO3)CC1", "observed": 83.7}
{"compound": "Cc1ccc(NS(=O)(=O)c2ccc3c(c2)oc(=O)n3C)cc1F", "observed": 86.1}
{"compound": "O=C(Nc1nnc(-c2ccc3c(c2)OCCO3)o1)c1ccc(Cc2ccccc2)cc1", "observed": 40.9}
{"compound": "CCNc1nc(NCC)nc(-n2nc(C)cc2C)n1", "observed": 103}
{"compound": "CCOC(=O)C1CCN(C(=O)Cn2cc3c(n2)CCC(C)C3)CC1 (configuration not stated)", "observed": 95.6}
{"compound": "O=C(O)c1ccc(-n2cccc2)cc1O", "observed": 101}
{"compound": "COc1cccc2c(=O)n(CC(=O)NC3CCCC3)ccc12", "observed": 94}
{"compound": "COc1ccc(N=C(C)C2=C(O)COC2=O)cc1", "observed": 99}
{"compound": "O=C1CCC(=O)N1CNc1cccnc1", "observed": 103}
{"compound": "CN(CC(CC(=O)Nc1nncs1)c1ccccc1)S(=O)(=O)c1ccccc1 (configuration not stated)", "observed": 81.2}
{"compound": "Cn1c(=O)c2c(nc(CN3CCCCC3)n2Cc2c(F)cccc2Cl)n(C)c1=O", "observed": 93.2}
{"compound": "COc1ccccc1-c1nnc(SCC(=O)Nc2ccc(Cl)cc2Cl)o1", "observed": 91.1}
{"compound": "O=C(O)c1ccc(-n2nnnc2SCc2ccccc2F)cc1", "observed": 102}
{"compound": "COc1ccc(C2NC(=O)c3n[nH]c(C)c32)c(OC)c1 (configuration not stated)", "observed": 103}
{"compound": "O=C(c1cnn2c(C(F)(F)F)cc(-c3ccco3)nc12)N1CCCCCC1", "observed": 91.5}
{"compound": "Cc1c(=O)n(OCc2ccccc2)c2ccccc2[n+]1[O-]", "observed": 95.8}
{"compound": "CCOC(=O)c1c(N=CN(C)C)c(C#N)n2c1CCC2", "observed": 93.2}
{"compound": "Cc1cc(C)cc(Nc2cc(C)nc3nc(C)nn23)c1", "observed": 90.8}
{"compound": "COC(=O)c1ccc(N2CCOCC2)c(NC(=O)Nc2cccc(OC)c2)c1", "observed": 77.1}
{"compound": "CCOC(=O)C1CCCN(C(=O)c2ccco2)C1 (configuration not stated)", "observed": 102}
{"compound": "Nn1c(SCc2ccccc2)nnc1-c1ccco1", "observed": 93}
{"compound": "COc1ccc(C(C#N)(CCC#N)CCC#N)cc1OC", "observed": 105}
{"compound": "CC(=O)c1coc2ccc(OCCN3CCCCC3)cc12", "observed": 85.8}
{"compound": "C=C(C)Cn1c(C2CC(=O)N(c3ccccc3F)C2)nc2ccccc21 (configuration not stated)", "observed": 105}
{"compound": "CCn1c(SCc2nc(-c3ccccc3)no2)nc2ccccc21", "observed": 92.3}
{"compound": "Cc1cc(OCC(=O)C(C)(C)C)c2c(C)c(C)c(=O)oc2c1", "observed": 73.8}
{"compound": "Cc1cnc(NC(=O)c2ccc(-c3nc4ccccc4s3)o2)s1", "observed": 96.3}
{"compound": "COc1ccc(C(=O)NCC(c2cccnc2)N2CCN(c3ccccc3OC)CC2)cc1OC (configuration not stated)", "observed": 91}
{"compound": "CCN(CC)C(=O)c1sc(NC(=O)c2ccoc2C)c(C(=O)OC)c1C", "observed": 90.6}
{"compound": "Cc1cc(C)n(-c2ncnc3sc4c(c23)CC(C)CC4)n1 (configuration not stated)", "observed": 90.7}
{"compound": "COc1cc2[nH]c(=O)n(CCC(=O)NCc3cccnc3)c(=O)c2cc1OC", "observed": 95.8}
{"compound": "COc1ccc(-c2noc(Cc3cccs3)n2)cc1", "observed": 93.3}
{"compound": "CCN1CCN(CCCNC(=O)Cn2cc3c(n2)CCCC3)CC1", "observed": 97.2}
{"compound": "Cc1cc2oc(C(=O)Nc3cccnc3)c(C)c2cc1C", "observed": 87}
{"compound": "Clc1ccccc1CSc1nnc(-c2cccnc2)n1Cc1ccco1", "observed": 91}
{"compound": "COc1ccc(NC(=O)C2CCN(S(=O)(=O)c3ccc(OC)c(OC)c3)CC2)c(OC)c1", "observed": 88.6}
{"compound": "COc1ccccc1NC(=O)CSc1nc2ncccc2[nH]1", "observed": 98.2}
{"compound": "O=C(N[C@@H](Cc1ccccc1)C(=O)O)c1cccnc1", "observed": 96.2}
{"compound": "CCOc1ccccc1NC(=O)C1CCN(S(=O)(=O)c2ccc(OC)c(OC)c2)CC1", "observed": 98.1}
{"compound": "COc1ccc(-n2c(Cc3cccn3C)nnc2SCC(=O)N2CCCC2)cc1", "observed": 98.5}
{"compound": "CCNc1nc2c(c(=O)[nH]c(=O)n2C)n1Cc1ccc(F)cc1", "observed": 85.2}
{"compound": "Cc1ccc(C(=O)Nc2cccc(C(=O)O)c2)cc1S(=O)(=O)N1CCCCC1", "observed": 100}
{"compound": "CCOC1OC2C(CO)OC(n3cnc4c(N)ncnc43)C2O1 (configuration not stated)", "observed": 96.6}
{"compound": "COc1cc(C)c(N(C(C)=O)c2ccccc2)c(C)c1", "observed": 87.3}
{"compound": "CCc1ccc(C2CC(c3ccc(C)cc3)Nc3nc(N)nn32)cc1 (configuration not stated)", "observed": 93.6}
